# reported inhibition at 50 µM; entries follow
Test system: Fusarium proliferatum
assay protocol: Example I: production of fumonisin FB1 by Fusarium proliferatum (microtitre plates)
Type: cell-based
details: Fusarium proliferatum, 120 h, 5 days at 20° C., HPLC-MS/MS, read-out: % Inhibition der FB1 produktion bei 50 μM

molecule	target of assay	inhibition at 50 µM [%]
CCC(=O)Nc1cc(-c2cn(CC(F)F)nc2-c2ccc(F)cc2)ccn1 [Compound 215]	Fusarium proliferatum	100
CNC(=O)c1cc(-c2cn(C(C)C)nc2-c2ccc(F)cc2)ccn1 [Compound 53]	Fusarium proliferatum	96
Fc1ccc(-c2nn(C3CCCCO3)cc2-c2ncnc3[nH]ccc23)cc1 (stereo not shown) [Compound 66]	Fusarium proliferatum	85
N#CCCn1cc(-c2ccncc2)c(-c2ccc(F)cc2)n1 [Compound 146]	Fusarium proliferatum	100
COCC(=O)Nc1cc(-c2cn(CC(C)C)nc2-c2ccc(F)cc2)ccn1 [Compound 166]	Fusarium proliferatum	100
CC(C)n1cc(-c2ccnc(NC(=O)C3CCC3)c2)c(-c2ccc(F)cc2)n1 [Compound 156]	Fusarium proliferatum	100
CC(C)Cn1cc(-c2ccnc(NC(=O)C(C)C)c2)c(-c2ccc(F)cc2)n1 [Compound 87]	Fusarium proliferatum	100
CCC(=O)Nc1cc(-c2c(-c3ccc(F)cc3O)nn(C)c2OC(F)F)ccn1 [Compound 196]	Fusarium proliferatum	100
COCC(=O)Nc1cc(-c2cn(CC3CC3)nc2-c2ccc(F)cc2)ccn1 [Compound 223]	Fusarium proliferatum	100
CCC(=O)Nc1cc(-c2cn(CCCl)nc2-c2ccc(F)cc2)ccn1 [Compound 219]	Fusarium proliferatum	100
Fc1ccc(-c2nn(C3CCCCO3)cc2-c2ccncc2)cc1 (stereo not shown) [Compound 9]	Fusarium proliferatum	96
C#CCn1ccc2c(-c3cn(C(C)C)nc3-c3ccc(F)cc3)ccnc21 [Compound 47]	Fusarium proliferatum	98
CC(C)Cn1cc(-c2ccnc(NC(=O)Cc3ccccc3)c2)c(-c2ccc(F)cc2)n1 [Compound 191]	Fusarium proliferatum	96
Clc1ccc(-c2c(-c3ccncc3)cnn2C2CCCCO2)cc1 (stereo not shown) [Compound 70]	Fusarium proliferatum	92
CCC(=O)Nc1cc(-c2cn(Cc3ccccc3F)nc2-c2ccc(F)cc2)ccn1 [Compound 213]	Fusarium proliferatum	100
O=C(Nc1cc(-c2cn(CCCl)nc2-c2ccc(F)cc2)ccn1)C1CC1 [Compound 221]	Fusarium proliferatum	100
CCn1cc(-c2ccnc(NC(=O)COC)c2)c(-c2ccc(F)cc2)n1 [Compound 203]	Fusarium proliferatum	100
CC(C)(C)n1cc(-c2ccncc2)c(-c2ccc(F)cc2)n1 [Compound 58]	Fusarium proliferatum	89
O=C(Nc1cc(-c2cn(CC(F)F)nc2-c2ccc(F)cc2)ccn1)C1CC1 [Compound 217]	Fusarium proliferatum	100
CCC(=O)Nc1cc(-c2cn(CC(C)C)nc2-c2ccc(F)cc2)ccn1 [Compound 155]	Fusarium proliferatum	100
CCC(=O)Nc1cc(-c2cn(CC3CC3)nc2-c2ccc(F)cc2)ccn1 [Compound 214]	Fusarium proliferatum	100
CC(C)n1cc(-c2ccnc(NC(=O)C3CC3)c2)c(-c2ccc(F)cc2)n1 [Compound 86]	Fusarium proliferatum	100
CCC(=O)Nc1cc(-c2cn(CC)nc2-c2ccc(F)cc2)ccn1 [Compound 198]	Fusarium proliferatum	100
COCC(=O)Nc1cc(-c2c(-c3ccc(Cl)cc3F)nn(C)c2SC)ccn1 [Compound 200]	Fusarium proliferatum	99
CCC(=O)Nc1cc(-c2cn(CCOC)nc2-c2ccc(F)cc2)ccn1 [Compound 153]	Fusarium proliferatum	100

Cited source for all entries: patent US20110183978A1
